# key: entry, value: GI50
System: MDA-MB-468 breast
Measured metric: GI50

>>> df
                                   molecule  measured_metric       result
0  COC12COC(=O)C1C(c1ccc3c(c1)OCO3)c1cc3c(cc1O2)OCO3 (centres undefined)             GI50     23000 nM
1  CC/C(=C(\c1ccc(Cl)cc1)c1ccc(OCCN2CCCCC2)cc1)c1ccc(O)cc1             GI50      1650 nM
2  Cc1ccc2c(c1)c(C1=C(c3cn(C)c4ccccc34)C(=O)NC1=O)cn2C             GI50      1030 nM
3  CC(=O)/C=C/c1cccc2c1C(=O)NC(C)(c1cc3cc(Br)ccc3oc1=O)N2 (centres undefined)             GI50      4280 nM
4  O=C(Nc1ccc(OCc2nnc(-c3ccc(Cl)cc3)o2)c(F)c1)Nc1ccc(Cl)c(Cl)c1             GI50      2990 nM
5  C=CCSSC1N=CNc2nc[nH]c21 (centres undefined)             GI50       319 nM
6  Cc1cc2nc3c4cc(C=O)ccc4n(CCN(C)C)c3nc2cc1C             GI50      1160 nM
7        CCOC(=O)Nc1nc2cc(OC)c(OC)c(OC)c2s1             GI50  > 100000 nM
8  COc1ccc(/C=C/C(=O)c2ccc(NC(=O)CSc3nnc(-c4ccc(OC)c(OC)c4)n3-c3ccccc3)cc2)cc1             GI50      1960 nM
